Each record here notes measured log10 Kd.
- experimentalSystem: T1, PUF4 RNA-binding domain (Saccharomyces cerevisiae, UniProt P25339 537-888)
- T1 sequence: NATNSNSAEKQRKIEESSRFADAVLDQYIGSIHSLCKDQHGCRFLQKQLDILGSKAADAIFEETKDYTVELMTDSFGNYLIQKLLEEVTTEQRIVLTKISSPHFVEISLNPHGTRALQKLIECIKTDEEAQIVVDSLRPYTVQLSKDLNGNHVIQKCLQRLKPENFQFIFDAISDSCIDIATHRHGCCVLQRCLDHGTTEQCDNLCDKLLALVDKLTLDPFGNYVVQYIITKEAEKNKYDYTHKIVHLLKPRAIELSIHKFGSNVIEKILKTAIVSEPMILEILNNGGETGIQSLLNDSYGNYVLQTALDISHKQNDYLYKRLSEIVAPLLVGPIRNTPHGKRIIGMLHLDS
- assayInfo: Mg; RNA-MaP; 20 mM Na-HEPES pH 7.4, 30 mM KOAc, 0.75 mM MgCl2, 0.1% Tween-20, 5% glycerol, 0.1 mg/mL BSA, 2 mM DTT; 25 C; 0.0125-409.6 nM protein
- experimentalContext: tags: N-His6-TEV cleaved; C-SNAP kept, Cy3B-labelled; label: tethered on chip by stalled RNA polymerase
propertyMeasured: log10 Kd (log10 of the value in nM)

>>> quantitativeresult("Ic_S4_P4E.1_K4.1_C4.1_H4.1_A4.1_[T5C]_[T7G]_F4.1_[A9G]_T4.1 (ssRNA) RNA: UUUGACAACUGAUCGUUCUUUCUUGUACAGUGUUCUUUCUCGAUCAGUUGUCUUU")
0.96
>>> quantitativeresult("UCUCUUCAUAUAUUAUUAUCUCUCUU (ssRNA) [Id_ii_S1_P5E.3_K5.2_C5.2_[T-1A]_H5.2_A5.1_F5.1_T5.2_[A12C]]")
2.26
>>> quantitativeresult("UCUCUUUGUACAUCCAUCUCUU (ssRNA) [Ic_S1_P5E.1_K5.1_C5.1_H5.1_A5.1_[T5C]_[T6A]_[A7T]_F5.1_[T8C]_[T9C]_T5.1]")
1.47
>>> quantitativeresult("Ic_S4_P3E.1_K3.1_C3.1_H3.1_A3.1_[T5A]_[A6T]_F3.1_[T7C]_[A8T]_T3.1 (ssRNA) RNA: UUUGACAACUGAUCGUUCUUUCUUGUAAUCUUUCUUUCUCGAUCAGUUGUCUUU")
1.26
>>> quantitativeresult("Ic_S2_P3E.1_K3.1_C3.1_H3.1_A3.1_[A6T]_F3.1_[T7C]_[A8T]_T3.1 (ssRNA) RNA: UUUGAUUAAUAUGAUAUCGUUCUUUCUUGUAUUCUUUCUUUCUCGAUAUCAUAUUAAUCUUU")
1.08
>>> quantitativeresult("Ie_S4_P5E.1_K5.1_C5.1_H5.1_[+1CCT]_A5.1_F5.1_T5.1 (ssRNA) RNA: UUUGACAACUGAUCGUUCUUUCUUCCUGUAUUAUUAUUCUUUCUCGAUCAGUUGUCUUU")
0.03
>>> quantitativeresult("Id_ii_S4_P3E.2_K3.1_C3.2_[C-2T]_H3.1_A3.1_F3.1_T3.2_[T9C]_[A10C] (ssRNA) RNA: UUUGACAACUGAUCGUUCUUUCUUUUGUAUAUACCUUCUUUCUCGAUCAGUUGUCUUU")
0.46
>>> quantitativeresult("Id_ii_S4_P3E.4_K3.3_C3.2_[T-1G]_H3.3_A3.1_F3.1_T3.2_[T9C] (ssRNA) RNA: UUUGACAACUGAUCGUUCUUUCUCGACACUAUACAUUCUUUCUCGAUCAGUUGUCUUU")
2.80
>>> quantitativeresult("UCUCUUUGUAUGCUUUCUCUU (ssRNA) [Ic_S1_P4E.1_K4.1_C4.1_H4.1_A4.1_[A6G]_[T7C]_F4.1_[A9T]_T4.1]")
1.98
>>> quantitativeresult("UCUCUUCUUAUAUUAUUAUCUCUCUU (ssRNA) [Id_ii_S1_P5E.3_K5.2_C5.2_H5.2_A5.1_F5.1_T5.2_[A12C]]")
2.69
>>> quantitativeresult("UCUCUUUAUUGUAUAUUAGUUCUCUU (ssRNA) [Id_iii_S1_P4E.5_K4.1_C4.3_[C-2A]_H4.1_A4.1_F4.1_T4.2]")
-0.44
>>> quantitativeresult("Ib_S2_P5E.1_K5.1_C5.1_H5.1_[A4C]_A5.1_[A7T]_F5.1_T5.1 (ssRNA) RNA: UUUGAUUAAUAUGAUAUCGUUCUUUCUUGUCUUUUUAUUCUUUCUCGAUAUCAUAUUAAUCUUU")
1.39
>>> quantitativeresult("UCUCUUCAUGUAUUAUUAAUUCUCUU (ssRNA) [Id_ii_S1_P5E.2_K5.1_C5.2_[T-1A]_H5.1_A5.1_F5.1_T5.2_[T11A]_[A12T]]")
0.89
>>> quantitativeresult("UCUCUUUGUACAACAUCUCUU (ssRNA) [Ic_S1_P4E.1_K4.1_C4.1_H4.1_A4.1_[T5C]_[T7A]_F4.1_[T8C]_T4.1]")
1.16
>>> quantitativeresult("ACAAACACUAUAUAUUAAAACAAAC (ssRNA) [Id_ii_S3_P4E.3_K4.2_C4.2_[C-2A]_[T-1C]_H4.2_A4.1_F4.1_T4.2_[G10A]_[T11A]]")
1.53
>>> quantitativeresult("Ic_S2_P4E.1_K4.1_C4.1_H4.1_A4.1_[T5G]_[A6T]_[T7A]_F4.1_[A9T]_T4.1 (ssRNA) RNA: UUUGAUUAAUAUGAUAUCGUUCUUUCUUGUAGUAUUUUCUUUCUCGAUAUCAUAUUAAUCUUU")
1.42
>>> quantitativeresult("Id_ii_S2_P3E.2_K3.1_C3.2_[C-2A]_[T-1G]_H3.1_A3.1_F3.1_T3.2_[A10G] (ssRNA) RNA: UUUGAUUAAUAUGAUAUCGUUCUUUCUAGUGUAUAUAUGUUCUUUCUCGAUAUCAUAUUAAUCUUU")
0.76
>>> quantitativeresult("Ie_S2_P3E.2_K3.1_C3.2_H3.1_A3.1_F3.1_[+7TTC]_T3.2 (ssRNA) RNA: UUUGAUUAAUAUGAUAUCGUUCUUUCUCUUGUAUAUUUCAUAUUCUUUCUCGAUAUCAUAUUAAUCUUU")
0.99
>>> quantitativeresult("ACAAACAAUAUAUUAUUAUCACAAAC (ssRNA) [Id_ii_S3_P5E.3_K5.2_C5.2_[C-2A]_[T-1A]_H5.2_A5.1_F5.1_T5.2_[A12C]]")
2.76
>>> quantitativeresult("Ib_S4_P5E.1_K5.1_C5.1_H5.1_[T3G]_[A4C]_A5.1_F5.1_T5.1 (ssRNA) RNA: UUUGACAACUGAUCGUUCUUUCUUGGCUUAUUAUUCUUUCUCGAUCAGUUGUCUUU")
3.27
>>> quantitativeresult("Id_ii_S4_P3E.3_K3.2_C3.2_[C-2A]_H3.2_A3.1_F3.1_T3.2_[A10T] (ssRNA) RNA: UUUGACAACUGAUCGUUCUUUCUAUUAUAUAUAUUUUCUUUCUCGAUCAGUUGUCUUU")
2.31
>>> quantitativeresult("Id_ii_S4_P5E.2_K5.1_C5.2_[C-2A]_H5.1_A5.1_F5.1_T5.2_[A12G] (ssRNA) RNA: UUUGACAACUGAUCGUUCUUUCUAUUGUAUUAUUAUGUUCUUUCUCGAUCAGUUGUCUUU")
0.69
>>> quantitativeresult("Ic_S2_P5E.1_K5.1_C5.1_H5.1_A5.1_[T5A]_[A7T]_F5.1_[T9A]_[A10G]_T5.1 (ssRNA) RNA: UUUGAUUAAUAUGAUAUCGUUCUUUCUUGUAAUUUAGUUCUUUCUCGAUAUCAUAUUAAUCUUU")
0.72
